Measured On: T1, S. aureus gamma-hemolysin component C (HlgC) (Staphylococcus aureus, UniProt Q07227 30-315)
T1 sequence: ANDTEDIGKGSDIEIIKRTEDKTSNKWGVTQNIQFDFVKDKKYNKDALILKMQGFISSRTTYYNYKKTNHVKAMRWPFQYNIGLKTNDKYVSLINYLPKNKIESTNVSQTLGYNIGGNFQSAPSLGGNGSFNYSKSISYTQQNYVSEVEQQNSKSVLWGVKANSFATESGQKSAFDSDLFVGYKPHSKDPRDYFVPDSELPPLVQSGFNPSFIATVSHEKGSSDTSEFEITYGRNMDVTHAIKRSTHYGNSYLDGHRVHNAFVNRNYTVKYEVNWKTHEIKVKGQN
Test Protocol: BLI, biotinylated VHH on streptavidin sensor, HlgC in solution
pKd values by entry
pKd here is simply -log10 of the concentration when that concentration is written in mol/L.

binder="Bm32F03 (VHH) VHH: QVQLVESGGGLVQAGGSLRVSCAASGDWFIINSMAWFRQAPGKQREQVATISHGGIPRYADSVKGRFTISRDDSKDAVYLQMNNLKSDDTAMYVCAAGGLDYGFPDPTPEEFDYWGRGTQVTVSS" recorded_result=9.07

Query pKd for Bm32A08 (VHH) VHH: QVQLVESGGGLVQAGGSLRVSCAASGDWFIINSMAWFRQAPGKQREQVATISHGGIPRYADSVKGRFTISRDNSKGAVYLQMNNLKSDDTAMYVCAAGGLDYGFPDPTPEEFDYWGRGTQVTVSS
10.35

Recorded values, source patent EP4647443A1.
